Answer each item with its documented pIC50.
- MEASURED TARGET: K-Ras G13C (Homo sapiens (Human), UniProt P01116+P62937, G13C)
- Sequence (P01116-2 other isoform, or with tags, fused parts or gaps G13C): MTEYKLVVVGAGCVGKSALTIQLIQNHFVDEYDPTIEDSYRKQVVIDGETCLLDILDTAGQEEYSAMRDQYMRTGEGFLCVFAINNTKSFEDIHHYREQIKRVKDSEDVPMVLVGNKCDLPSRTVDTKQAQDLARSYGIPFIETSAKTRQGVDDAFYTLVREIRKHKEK
- Sequence (P62937 whole entry): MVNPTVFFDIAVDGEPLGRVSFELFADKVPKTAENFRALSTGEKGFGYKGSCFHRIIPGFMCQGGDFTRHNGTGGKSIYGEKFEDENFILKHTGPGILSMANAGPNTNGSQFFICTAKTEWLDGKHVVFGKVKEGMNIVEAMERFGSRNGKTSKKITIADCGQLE
- EXPERIMENT NOTES: Ras-Raf (BRAF RBD) disruption / FRET / MOA assay, KRAS G13C
- Format: biochemical
- EXPERIMENTAL CONDITIONS: KRAS G13C; Ras-Raf disruption/FRET/MOA assay; read-out: IC50* KRAS G13C FRET data
pIC50: −log10 of the molar value.

QUERY: State its pIC50: CCn1c(-c2cccnc2[C@H](C)OC)c2c3cc(ccc31)-c1cccc(c1)C[C@H](NC(=O)[C@H](C(C)C)N(C)C(=O)[C@H]1CCN(C(=O)C#CC3(N(C)C)CN(C)C3)C1)C(=O)N1CCC[C@H](N1)C(=O)OCC(C)(C)C2 (atropisomer, axis not shown)
RESULT: 5.00 to 6.00

QUERY: State its pIC50: C=CC(=O)N1CC[C@H](C(=O)N(C)[C@H](C(=O)N[C@H]2Cc3cc(cc(C(F)F)c3)-c3ccc4c(c3)c(c(-c3cccnc3[C@H](C)OC)n4CC(F)(F)F)CC(C)(C)COC(=O)[C@@H]3CCCN(N3)C2=O)C(C)C)C1 (atropisomer, axis not shown)
RESULT: 6.00 to 7.00

QUERY: State its pIC50: C#CC(=O)N1CC[C@H](C(=O)N(C)[C@H](C(=O)N[C@H]2Cc3cc(O)cc(c3)-c3ccc4c(c3)c(c(-c3cnccc3[C@H](C)OC)n4CC)CC(C)(C)COC(=O)[C@@H]3CCCN(N3)C2=O)C(C)C)C1
RESULT: 7.00 to 8.00

QUERY: State its pIC50: C=CC(=O)N1CC[C@H](C(=O)N(C)[C@H](C(=O)N[C@H]2Cc3cccc(c3)-c3ccc4c(c3)c(c(-c3cccnc3[C@H](C)OC)n4CC)CC(C)(C)COC(=O)[C@@H]3CCCN(N3)C2=O)C(C)C)[C@@H]1C (atropisomer, axis not shown)
RESULT: 5.00 to 6.00

QUERY: State its pIC50: C=CC(=O)Nc1ccc(C(=O)N(C)[C@H](C(=O)N[C@H]2Cc3cc(O)cc(c3)-c3ccc4c(c3)c(c(-c3cccnc3[C@H](C)OC)n4CC)CC(C)(C)COC(=O)[C@@H]3CCCN(N3)C2=O)C(C)C)nc1 (atropisomer, axis not shown)
RESULT: > 8.00

QUERY: State its pIC50: C=CC(=O)N1CC(OC[C@H](C(=O)N[C@H]2Cc3cc(F)cc(c3)-c3ccc4c(c3)c(c(-c3cccnc3[C@H](C)OC)n4CC(F)(F)F)CC(C)(C)COC(=O)[C@@H]3CCCN(N3)C2=O)C(C)C)C1 (atropisomer, axis not shown)
RESULT: 6.00 to 7.00

QUERY: State its pIC50: C=CC(=O)N1CC[C@H](C(=O)N(C)[C@H](C(=O)N[C@H]2Cc3cc(O)cc(c3)-c3ccc4c(c3)c(c(-c3cccc5c3COC5)n4CC)CC(C)(C)COC(=O)[C@@H]3CCCN(N3)C2=O)C(C)C)C1
RESULT: 5.00 to 6.00

QUERY: State its pIC50: CCn1c(-c2cccnc2COC)c2c3cc(ccc31)-c1cc(O)cc(c1)C[C@H](NC(=O)[C@H](C(C)C)N(C)C(=O)[C@H]1CCN(C(=O)C#CCN3CCOCC3)C1)C(=O)N1CCC[C@H](N1)C(=O)OCC(C)(C)C2
RESULT: 6.00 to 7.00

QUERY: State its pIC50: C=CC(=O)N1CC[C@H](C(=O)N(C)[C@H](C(=O)N[C@H]2Cc3cc(O)cc(c3)-c3ccc4c(c3)c(c(-c3cc(C#N)cnc3COC)n4CC)CC(C)(C)COC(=O)[C@@H]3CCCN(N3)C2=O)C(C)C)C1
RESULT: 6.00 to 7.00

QUERY: State its pIC50: C=C(F)C(=O)N1CC2(CCN(C(=O)N(C)[C@H](C(=O)N[C@H]3Cc4nc(cs4)-c4ccc5c(c4)c(c(-c4cccnc4[C@H](C)OC)n5CC)CC(C)(C)COC(=O)[C@@H]4CCCN(N4)C3=O)C(C)C)CC2)C1 (atropisomer, axis not shown)
RESULT: 6.00 to 7.00

QUERY: State its pIC50: CCn1c(-c2cncnc2)c2c3cc(ccc31)-c1cccc(c1)[C@@H](OC)[C@H](NC(=O)[C@H](C(C)C)N(C)C(=O)[C@H]1CCN(C(=O)C#CCN3CCOCC3)C1)C(=O)N1CCC[C@H](N1)C(=O)OCC(C)(C)C2
RESULT: < 5.00

QUERY: State its pIC50: CCn1c(-c2cccnc2[C@H](C)OC)c2c3cc(ccc31)-c1csc(n1)C[C@H](NC(=O)[C@H](C(C)C)N(C)C(=O)N1CC(N(C)C(=O)/C=C/CN(C)C)C1)C(=O)N1CCC[C@H](N1)C(=O)OCC(C)(C)C2 (atropisomer, axis not shown)
RESULT: 6.00 to 7.00

QUERY: State its pIC50: C=CC(=O)N1CC[C@H](C(=O)N(C)[C@H](C(=O)N[C@H]2Cc3cccc(c3)-c3ccc4c(c3)c(c(-c3cccnc3[C@H](C)OC)n4CC)CC(C)(C)COC(=O)[C@@H]3CCCN(N3)C2=O)C2COC2)C1 (atropisomer, axis not shown)
RESULT: 5.00 to 6.00

QUERY: State its pIC50: C=CS(=O)(=O)N1CC2(CCN([C@H](C(=O)N[C@H]3Cc4cc(O)cc(c4)-c4ccc5c(c4)c(c(-c4cccnc4[C@H](C)OC)n5CC)CC(C)(C)COC(=O)[C@@H]4CCCN(N4)C3=O)C(C)C)C2=O)C1 (atropisomer, axis not shown)
RESULT: > 8.00

QUERY: State its pIC50: CCn1c(-c2cccnc2[C@H](C)OC)c2c3cc(ccc31)-c1cccc(c1)C[C@H](NC(=O)[C@H](C(C)C)N(C)C(=O)[C@H]1CCN(C(=O)C#CC3(N(C)C)CCOC3)C1)C(=O)N1CCC[C@H](N1)C(=O)OCC(C)(C)C2 (stereo partly drawn)
RESULT: 5.00 to 6.00

Source of measurements: patent US11566007B2
